Each entry below carries its recorded Antibody binding to A431 cells: EC50 in presence of Gas6 (µg/mL) mean (s.d.).
molecular target: T1, AXL on A431 cells (Homo sapiens, UniProt P30530); experiment: Antibody binding to A431 cells with or without Gas6 pre-incubation; details: pre-incubation with 10 µg/mL Gas6
T1 construct: AXL-positive A431 cells were incubated; endogenous in cells; host or cells: A431

Consider the molecule shown here: IgG1-AXL-511: AXL-specific human IgG1,κ antibody, VH SEQ ID NO:136, VL SEQ ID NO:140, Ig2 domain binding (antibody, listed as Homo sapiens, V domains shown) VH: EVQLLESGGGLVQPGGSLRLSCAASGFTFSSYAMNWVRQAPGKGLEWVSGISGSGGHTYHADSVKGRFTISRDNSKNTLYLQMNSLRAEDTAVYYCAKDRYDILTGYYNLLDYWGQGTLVTVSS VL: DIQMTQSPSSLSASVGDRVTITCRASQGISSWLAWYQQKPEEAPKSLIYAASSLQSGVPSRFSGSGSGTDFTLTISSLQPEDFATYYCQQYNSYPLTFGGGAKVEIK What is its recorded Antibody binding to A431 cells: EC50 in presence of Gas6 (µg/mL) mean (s.d.)?
0.30 (0.31) µg/mL

One more molecule: IgG1-AXL-183: AXL-specific human IgG1,κ antibody, VH SEQ ID NO:16, VL SEQ ID NO:18, FN1 domain binding (antibody, listed as Homo sapiens, V domains shown) VH: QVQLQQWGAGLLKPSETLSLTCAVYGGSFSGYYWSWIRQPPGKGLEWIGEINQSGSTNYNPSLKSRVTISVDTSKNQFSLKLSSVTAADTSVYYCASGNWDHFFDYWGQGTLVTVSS VL: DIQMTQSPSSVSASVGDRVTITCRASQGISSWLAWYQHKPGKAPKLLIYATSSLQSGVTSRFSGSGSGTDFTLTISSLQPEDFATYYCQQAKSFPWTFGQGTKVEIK
1.19 (1.11) µg/mL

Just for reference, patent US20230321261A1 is where these values come from.
